# Test system: ATGL-KO iPSCs
# test_name: High throughput iPSC chemical screening, Oil Red O (ORO) lipid accumulation; also: test concentration or dose not given here
# Assay type: cell-based, mouse
Structures can show the parent of a compound that is named as a salt.
endpoint_name: Z-score
// no unit string in output, number only

A selection of reference data follows.
compound | tested_target | Z-score
CNCCC(Oc1ccccc1OC)c1ccccc1 (stereo not shown) [Nisoxetine hydrochloride] | ATGL-KO iPSCs | −1.699
CCN(CC)CCCC(C)Nc1ccnc2cc(Cl)ccc12 (stereo not shown) [Chloroquine diphosphate] | ATGL-KO iPSCs | 0.8301
CC(N)C(O)c1ccccc1 (stereo not shown) [Phenylpropanolamine hydrochloride] | ATGL-KO iPSCs | 0.2625

Lab note: need Z-score with ATGL-KO iPSCs for entry O=C(O)C1CCCNC1 (racemic) [(±)-Nipecotic acid] , please look it up. 0.6655

The measured values listed here are drawn from patent US9393221B2.
